Molecular target: Retinoic acid receptor RXR-alpha (Homo sapiens)
Sequence (P19793 whole entry, the tested form may be a part): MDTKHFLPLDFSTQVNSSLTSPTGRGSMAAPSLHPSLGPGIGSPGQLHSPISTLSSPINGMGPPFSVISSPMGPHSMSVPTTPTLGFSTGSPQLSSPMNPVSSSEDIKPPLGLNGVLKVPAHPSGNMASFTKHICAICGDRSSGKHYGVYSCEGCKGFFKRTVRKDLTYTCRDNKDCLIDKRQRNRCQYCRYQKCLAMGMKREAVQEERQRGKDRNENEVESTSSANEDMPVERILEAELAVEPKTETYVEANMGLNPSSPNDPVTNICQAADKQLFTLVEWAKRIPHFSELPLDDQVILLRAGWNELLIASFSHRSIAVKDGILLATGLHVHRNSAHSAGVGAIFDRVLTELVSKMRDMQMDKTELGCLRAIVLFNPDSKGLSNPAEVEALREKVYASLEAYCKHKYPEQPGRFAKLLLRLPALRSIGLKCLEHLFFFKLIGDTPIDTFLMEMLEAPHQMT
Experiment: Activity at RXRalpha by GAL4DNA cotransfection assay
pEC50: −log10 of the molar value.
outcome-measure: pEC50

[
  {
    "compound": "Cc1cc2c(cc1-c1cc(C3CC3C(=O)O)ccc1OCC(F)(F)F)N(C)C(=O)CC2(C)C (racemic)",
    "outcome-measure": "pEC50",
    "readout-number": 6.84
  }
]

A. CCN1C(=O)CC(C)(C)c2cc(C)c(-c3cc(CCC(=O)O)ccc3OCC(F)(F)F)cc21
B. CCN1C(=O)CC(C)(C)c2cc(C)c(-c3cc(C4CC4C(=O)O)ccc3OCC(F)(F)F)cc21 (racemic)
Input: Field: lower recorded pEC50 (choose A or B ) Answer = label.
Output: B
(B: 6.94, A: 7.15)

----------
Target: Retinoic acid receptor RXR-alpha (Homo sapiens)
Assay: Activity at RXRalpha by GAL4DNA cotransfection assay relative to 5-((3-(1-ethyl-4,4,6-trimethyl-2-oxo-1,2,3,4-tetrahydroquinolin-7-yl)-4-(trifluoromethoxy)phenyl)methylene)thiazolidine-2,4-dione
Design: concentration or dose not given beside the values
outcome-measure: Activity (%)

[
  {
    "compound": "Cc1cc2c(cc1-c1cc(CCC(=O)O)ccc1OCC(F)(F)F)N(C(C)C)C(=O)CC2(C)C",
    "units-label": "%",
    "readout-number": 79
  },
  {
    "compound": "Cc1cc2c(cc1-c1cc(CCC(=O)O)ccc1OC(F)(F)F)N(C)C(=O)CC2(C)C",
    "units-label": "%",
    "readout-number": 91
  },
  {
    "compound": "CCN1C(=O)CC(C)(C)c2cc(C)c(-c3cc(CCC(=O)O)ccc3OCC(F)(F)F)cc21",
    "units-label": "%",
    "readout-number": 90
  },
  {
    "compound": "CCN1C(=O)CC(C)(C)c2cc(C)c(-c3cc([C@H]4C[C@@H]4C(=O)O)ccc3OC(F)(F)F)cc21",
    "units-label": "%",
    "readout-number": 92
  }
]
